Tested on: Fibroblast
methodSummary: Multiplex assay against human fibroblast
Type: toxicity, cell-based
particulars: 12 h, 1 µM, compound concentration 1 uM, replicate 2
experimentalReadout: Population Mitochondria Different-Phenotype (%)
Write the number in % without appending the unit.

[
  {
    "molecule": "C=C1/C(=C\\C=C2/CCC[C@]3(C)[C@@H]([C@H](C)/C=C/[C@H](C)C(C)C)CC[C@@H]23)C[C@@H](O)C[C@@H]1O [DOXERCALCIFEROL]",
    "measuredResult": 14
  },
  {
    "molecule": "CN[C@@H]1C[C@H]2O[C@@](C)([C@@H]1OC)n1c3ccccc3c3c4c(c5c6ccccc6n2c5c31)C(=O)NC4 [STAUROSPORINE]",
    "measuredResult": 11
  }
]

**Q:** // returns reported Population Mitochondria Different-Phenotype (%) for input COc1ccc(S(=O)(=O)N(CCO)c2ccccc2CN(C)C/C=C/c2ccc(Cl)cc2)cc1.O=P(O)(O)O
**A:** 88

**Q:** Need Population Mitochondria Different-Phenotype (%), item Cn1nc(C(F)(F)F)cc1-c1cnc(N2CCc3cc(S(=O)(=O)Nc4c(F)cc(Cl)cc4F)cc(N4CCCC4=O)c32)nc1 [TP-020]
**A:** 18
